# system: human NK-2 receptor (Homo sapiens, UniProt P21452)
# Construct: expressed in transfected cells; host or cells: CHO (Chinese hamster ovary) cells, membranes
# assay_name: binding test, affinity for the human NK-2 receptor, competition with [125I]NKA on transfected CHO cell membranes
# condition_notes: CHO cell membranes transfected with NK-2 receptor of human ileum; [125I]NKA 100 pM; 30 min, 20° C.
# Experimental: The evaluation of the antagonist activity on NK-2 receptors has been assessed by binding and functional tests according to that already described in literature in relation to NK-2 antagonists. The test substances have been tested within a concentration range from 0.01 nM to 10 nM. At the end of the incubation time (30 min, 20° C.) the samples have been filtered and radioactivity has been determined using a gamma-counter.
recorded_endpoint: pKi

>>> measured_number("CC[C@@](C)(NC(=O)C=Cc1ccc(C)cc1)C(=O)N[C@H](Cc1ccccc1)C(=O)N[C@H]1CC[C@@H](C(=O)N[C@H]2CCCC[C@@H]2N)C1.O=C(O)C(F)(F)F")
10.0
>>> measured_number("O=C(NC1(C(=O)N[C@H](Cc2ccccc2)C(=O)NCC2CCN(CC3CCOCC3)CC2)CCCC1)c1ccc2cc(Br)ccc2c1")
10.0
>>> measured_number("CCCCN(CCCC)CCCNC(=O)[C@@H](Cc1ccccc1)NC(=O)C1(NC(=O)c2cc3ccccc3s2)CCCCC1")
8.9

---

# system: human NK-2 receptor (Homo sapiens, UniProt P21452)
# Sequence (P21452 1-398): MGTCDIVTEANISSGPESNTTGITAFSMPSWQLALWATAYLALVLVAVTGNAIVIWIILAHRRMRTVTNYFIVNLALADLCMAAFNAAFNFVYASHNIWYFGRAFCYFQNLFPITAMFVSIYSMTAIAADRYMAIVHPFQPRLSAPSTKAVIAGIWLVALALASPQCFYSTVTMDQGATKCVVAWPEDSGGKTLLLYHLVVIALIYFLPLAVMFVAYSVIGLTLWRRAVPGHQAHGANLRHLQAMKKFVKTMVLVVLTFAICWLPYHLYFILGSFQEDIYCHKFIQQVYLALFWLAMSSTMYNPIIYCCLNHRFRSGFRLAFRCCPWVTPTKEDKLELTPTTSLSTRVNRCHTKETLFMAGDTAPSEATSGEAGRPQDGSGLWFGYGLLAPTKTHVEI
Counter-ions that a name gives are not always drawn.
recorded_endpoint: Ki (nM)

>>> measured_number("CN(C)[C@H]1CCCC[C@@H]1NC(=O)[C@@H]1CC[C@H](NC(=O)[C@@H](Cc2ccccc2)NC(=O)C2(NC(=O)c3cc4ccccc4o3)CCCC2)C1 [Example 11, hydrochloride salt]")
2
>>> measured_number("Cc1ccc2cc(C(=O)NC3(C(=O)N[C@H](Cc4ccccc4)C(=O)NCC4CCN(CC5CCOCC5)CC4)CCCC3)oc2c1 [Example 125]")
0.251
>>> measured_number("O=C(NC1(C(=O)N[C@H](Cc2ccccc2)C(=O)NCC2CCN(CC3CCCCC3)CC2)CCCC1)c1cc2ccccc2s1 [Example 79]")
0.0631
>>> measured_number("Cc1ccc(C[C@@H](NC(=O)C2(NC(=O)c3cc4ccccc4s3)CCCC2)C(=O)N[C@H]2CC[C@@H](C(=O)N[C@H]3CCCC[C@@H]3N(C)C)C2)cc1 [Example 9, hydrochloride salt]")
1.58
>>> measured_number("NC1(C(=O)N2CCC(CNC(=O)[C@@H](Cc3ccccc3)NC(=O)C3(NC(=O)c4cc5ccccc5s4)CCCC3)CC2)CCCC1 [Example 63]")
0.631
>>> measured_number("C[C@@H]1CN(C(=O)CCNC(=O)[C@@H](Cc2ccccc2)NC(=O)C2(NC(=O)c3cc4ccccc4s3)CCCC2)C[C@H](C)N1 [Example 56, TFA salt]")
1.58

---

# system: human NK-2 receptor (Homo sapiens)
# Construct: expressed in transfected cells; host or cells: CHO (Chinese hamster ovary) cells, membranes
# Sequence (P21452 1-398): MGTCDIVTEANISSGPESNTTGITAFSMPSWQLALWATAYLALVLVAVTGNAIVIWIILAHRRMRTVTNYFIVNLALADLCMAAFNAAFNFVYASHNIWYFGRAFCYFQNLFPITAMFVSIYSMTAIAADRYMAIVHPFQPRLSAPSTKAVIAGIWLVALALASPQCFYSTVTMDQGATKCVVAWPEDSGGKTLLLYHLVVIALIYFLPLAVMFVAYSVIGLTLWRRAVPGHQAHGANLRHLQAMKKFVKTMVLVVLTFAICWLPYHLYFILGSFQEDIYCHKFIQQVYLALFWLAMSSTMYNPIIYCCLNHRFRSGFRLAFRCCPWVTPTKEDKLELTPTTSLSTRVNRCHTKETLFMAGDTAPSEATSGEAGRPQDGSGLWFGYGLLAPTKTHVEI
# assay_name: binding test, affinity for the human NK-2 receptor, competition with [125I]NKA on transfected CHO cell membranes
# condition_notes: CHO cell membranes transfected with NK-2 receptor of human ileum; [125I]NKA 100 pM; 30 min, 20° C.
Measured pKi values are reported for all entries that follow.
recorded_endpoint: pKi

>>> measured_number("CC[C@@](C)(NC(=O)c1cc2ccccc2s1)C(=O)N[C@H](Cc1ccccc1)C(=O)N[C@H]1CC[C@@H](C(=O)N[C@H]2CCCC[C@@H]2N)C1.O=C(O)C(F)(F)F [Example 14]")
9.9
>>> measured_number("O=C(NC1(C(=O)NC(Cc2ccccc2)C(=O)NCC2CCN(CC3CCOCC3)CC2)CCCC1)c1ccc2ccccc2c1 (stereo not shown) [Example 149]")
9.9
>>> measured_number("O=C(NC1(C(=O)N[C@H](Cc2ccccc2)C(=O)NCCCN2CCOCC2)CCCCC1)c1cc2ccccc2s1 [Example 20]")
9.1
>>> measured_number("Cc1ccc(C=CC(=O)NC2(C(=O)N[C@H](Cc3ccccc3)C(=O)N[C@H]3CC[C@@H](C(=O)N[C@H]4CCCC[C@@H]4N)C3)CCCC2)cc1.O=C(O)C(F)(F)F [Example 5]")
9.7
>>> measured_number("NCCCCCNC(=O)C1CCCC(NC(=O)[C@@H](Cc2ccccc2)NC(=O)C2(NC(=O)c3cc4ccccc4s3)CCCCC2)C1.O=C(O)C(F)(F)F (stereo in doubt) [Example 22]")
9.2
>>> measured_number("Cn1c(C(=O)NC2(C(=O)N[C@H](Cc3ccccc3)C(=O)N[C@H]3CC[C@@H](C(=O)N[C@H]4CCCC[C@@H]4N)C3)CCCC2)cc2ccccc21.O=C(O)C(F)(F)F [Example 4]")
9.8
>>> measured_number("Cc1ccc2sc(C(=O)NC3(C(=O)N[C@H](Cc4ccccc4)C(=O)NCC4CCN(CC5CCOCC5)CC4)CCCC3)cc2c1 [Example 138]")
9.8

---

Target chain: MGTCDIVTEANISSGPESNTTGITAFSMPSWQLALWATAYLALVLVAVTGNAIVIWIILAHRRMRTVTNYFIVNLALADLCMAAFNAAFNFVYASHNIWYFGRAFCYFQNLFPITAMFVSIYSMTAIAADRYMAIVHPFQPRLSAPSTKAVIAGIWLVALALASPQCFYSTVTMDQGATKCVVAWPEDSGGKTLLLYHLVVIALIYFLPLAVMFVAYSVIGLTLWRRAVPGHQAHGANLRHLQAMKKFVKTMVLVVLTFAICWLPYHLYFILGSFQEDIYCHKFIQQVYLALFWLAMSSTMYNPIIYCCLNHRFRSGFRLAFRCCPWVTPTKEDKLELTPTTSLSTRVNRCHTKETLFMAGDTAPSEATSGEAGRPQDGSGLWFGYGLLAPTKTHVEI
Structures can show the parent of a compound that is named as a salt.
recorded_endpoint: Ki

>>> result("O=C(NC1(C(=O)N[C@H](Cc2ccccc2)C(=O)NCC2CCN(CC3CCOCC3)CC2)CCCC1)c1cc2ccc(I)cc2s1 [Example 129]")
"50.1 pM"
>>> result("CC(C)(C)c1cccc2cc(C(=O)NC3(C(=O)N[C@H](Cc4ccccc4)C(=O)NCC4CCN(CC5CCOCC5)CC4)CCCC3)oc12 [Example 124]")
"100 pM"
>>> result("COc1ccc2cc(C(=O)NC3(C(=O)N[C@H](Cc4ccccc4)C(=O)NCC4CCN(CC5CCOCC5)CC4)CCCC3)ccc2c1 [Example 118]")
"316 pM"
>>> result("Cc1ccc(C=CC(=O)NC2(C(=O)NC(Cc3ccc(C)cc3)C(=O)NC3CCC(C(=O)NC4CCCCC4N)C3)CCCC2)cc1 (stereo not drawn) [Example 18, hydrochloride salt]")
"794 pM"
>>> result("O=C(NC1(C(=O)N[C@@H](CNCCC2CCN(C(=O)Cc3cccs3)CC2)Cc2ccccc2)CCCC1)c1cc2ccccc2s1 [Example 94, TFA salt]")
"631 pM"
>>> result("O=C(NC1(C(=O)N[C@H](Cc2ccccc2)C(=O)NC2CCN(CCC3CCOCC3)CC2)CCCC1)c1cc2ccccc2s1 [Example 68, TFA salt]")
"1260 pM"
